# Protocol conditions: 353.15 K; 30000 kPa; Liquid; Vibrating tube method
Endpoint: mass density (kg/m3)

>>> print(df.to_string())
                             molecule      endpoint  output_unit  reported_measurement
0   CCCCCCC(=O)OC [methyl heptanoate]  mass density        kg/m3                852.65
1     CCCCCC(=O)OC [methyl hexanoate]  mass density        kg/m3                855.46
2       CCCC(=O)OC [methyl butanoate]  mass density        kg/m3                864.51
3   CCCCCCCC(=O)OC [methyl octanoate]  mass density        kg/m3                850.48
4     CCCCC(=O)OC [methyl pentanoate]  mass density        kg/m3                859.45
5  CCCCCCCCC(=O)OC [methyl nonanoate]  mass density        kg/m3                 848.7

* * *

# Protocol conditions: 303.15 K; 60000 kPa; Liquid; Vibrating tube method
Endpoint: mass density (kg/m3)

>>> print(df.to_string())
                             molecule  reported_measurement
0   CCCCCCCC(=O)OC [methyl octanoate]                905.64
1       CCCC(=O)OC [methyl butanoate]                932.54
2  CCCCCCCCC(=O)OC [methyl nonanoate]                902.44
3   CCCCCCC(=O)OC [methyl heptanoate]                909.95
4     CCCCC(=O)OC [methyl pentanoate]                922.74
5     CCCCCC(=O)OC [methyl hexanoate]                915.57

* * *

# Protocol conditions: 343.15 K; 100 kPa; Liquid; Vibrating tube method
Endpoint: mass density (kg/m3)

>>> print(df.to_string())
                             compound      endpoint  reported_measurement
0       CCCC(=O)OC [methyl butanoate]  mass density                841.05
1   CCCCCCC(=O)OC [methyl heptanoate]  mass density                833.48
2  CCCCCCCCC(=O)OC [methyl nonanoate]  mass density                831.17
3     CCCCCC(=O)OC [methyl hexanoate]  mass density                 835.2
4     CCCCC(=O)OC [methyl pentanoate]  mass density                 837.8
5   CCCCCCCC(=O)OC [methyl octanoate]  mass density                 832.2

* * *

# Protocol conditions: 293.15 K; 60000 kPa; Liquid; Vibrating tube method
Endpoint: mass density (kg/m3)

>>> df
                             compound      endpoint  output_unit  reported_measurement
0  CCCCCCCCC(=O)OC [methyl nonanoate]  mass density        kg/m3                909.15
1     CCCCC(=O)OC [methyl pentanoate]  mass density        kg/m3                930.63
2   CCCCCCC(=O)OC [methyl heptanoate]  mass density        kg/m3                917.16
3     CCCCCC(=O)OC [methyl hexanoate]  mass density        kg/m3                923.06
4       CCCC(=O)OC [methyl butanoate]  mass density        kg/m3                941.12
5   CCCCCCCC(=O)OC [methyl octanoate]  mass density        kg/m3                912.62

* * *

# Protocol conditions: 313.15 K; 50000 kPa; Liquid; Vibrating tube method
Endpoint: mass density (kg/m3)

>>> df
                             compound      endpoint  output_unit  reported_measurement
0     CCCCC(=O)OC [methyl pentanoate]  mass density        kg/m3                908.24
1   CCCCCCCC(=O)OC [methyl octanoate]  mass density        kg/m3                893.07
2   CCCCCCC(=O)OC [methyl heptanoate]  mass density        kg/m3                896.98
3     CCCCCC(=O)OC [methyl hexanoate]  mass density        kg/m3                901.99
4  CCCCCCCCC(=O)OC [methyl nonanoate]  mass density        kg/m3                890.09
5       CCCC(=O)OC [methyl butanoate]  mass density        kg/m3                917.24

* * *

# Protocol conditions: 303.15 K; 20000 kPa; Liquid; Vibrating tube method
Endpoint: mass density (kg/m3)

In [3]: df
Out[3]:
                             compound  reported_measurement
0  CCCCCCCCC(=O)OC [methyl nonanoate]                879.53
1   CCCCCCC(=O)OC [methyl heptanoate]                885.64
2   CCCCCCCC(=O)OC [methyl octanoate]                882.04
3       CCCC(=O)OC [methyl butanoate]                904.45
4     CCCCC(=O)OC [methyl pentanoate]                896.14
5     CCCCCC(=O)OC [methyl hexanoate]                890.21

* * *

# Protocol conditions: 363.15 K; 35000 kPa; Liquid; Vibrating tube method
Endpoint: mass density (kg/m3)

>>> print(df.to_string())
                             molecule      endpoint  output_unit  reported_measurement
0   CCCCCCC(=O)OC [methyl heptanoate]  mass density        kg/m3                849.23
1  CCCCCCCCC(=O)OC [methyl nonanoate]  mass density        kg/m3                845.31
2       CCCC(=O)OC [methyl butanoate]  mass density        kg/m3                859.76
3     CCCCC(=O)OC [methyl pentanoate]  mass density        kg/m3                855.31
4     CCCCCC(=O)OC [methyl hexanoate]  mass density        kg/m3                 851.7
5   CCCCCCCC(=O)OC [methyl octanoate]  mass density        kg/m3                847.13

* * *

# Protocol conditions: 293.15 K; 15000 kPa; Liquid; Vibrating tube method
Endpoint: mass density (kg/m3)

>>> df
                             compound  reported_measurement
0   CCCCCCC(=O)OC [methyl heptanoate]                890.49
1  CCCCCCCCC(=O)OC [methyl nonanoate]                884.05
2       CCCC(=O)OC [methyl butanoate]                910.63
3     CCCCC(=O)OC [methyl pentanoate]                901.59
4     CCCCCC(=O)OC [methyl hexanoate]                895.33
5   CCCCCCCC(=O)OC [methyl octanoate]                886.82

* * *

# Protocol conditions: 303.15 K; 100 kPa; Liquid; Vibrating tube method
Endpoint: mass density (kg/m3)

In [3]: df
Out[3]:
                             compound      endpoint  reported_measurement
0   CCCCCCCC(=O)OC [methyl octanoate]  mass density                867.63
1     CCCCCC(=O)OC [methyl hexanoate]  mass density                874.56
2       CCCC(=O)OC [methyl butanoate]  mass density                886.68
3   CCCCCCC(=O)OC [methyl heptanoate]  mass density                870.66
4     CCCCC(=O)OC [methyl pentanoate]  mass density                879.57
5  CCCCCCCCC(=O)OC [methyl nonanoate]  mass density                865.62

* * *

# Protocol conditions: 303.15 K; 10000 kPa; Liquid; Vibrating tube method
Endpoint: mass density (kg/m3)

>>> print(df.to_string())
                             molecule  reported_measurement
0     CCCCCC(=O)OC [methyl hexanoate]                882.75
1   CCCCCCCC(=O)OC [methyl octanoate]                875.12
2  CCCCCCCCC(=O)OC [methyl nonanoate]                 872.9
3     CCCCC(=O)OC [methyl pentanoate]                 888.3
4   CCCCCCC(=O)OC [methyl heptanoate]                 878.5
5       CCCC(=O)OC [methyl butanoate]                895.99

Source of measurements: the NIST ThermoML archive (doi:10.1016/j.fluid.2018.04.024)
